test system: human plasma protein binding, RED dialysis, LC/MS/MS; assay: human plasma protein binding, late-stage follow-up, ADME assay, biochemical, rapid equilibrium dialysis, LC/MS/MS (AID 1617); settings: percent bound; at 10 µM; stronger effect = higher value
recorded_endpoint: plasma protein bound

Input line: Suppose we examine the compound Cc1cc(OCC(=O)Nc2ncn[nH]2)ccc1Cl ; what plasma protein bound value has been reported?
Output line: 16.8%
